# Measured On: Adenosine receptor A2b (Homo sapiens) (UniProt P29275)
# Sequence (P29275 whole entry): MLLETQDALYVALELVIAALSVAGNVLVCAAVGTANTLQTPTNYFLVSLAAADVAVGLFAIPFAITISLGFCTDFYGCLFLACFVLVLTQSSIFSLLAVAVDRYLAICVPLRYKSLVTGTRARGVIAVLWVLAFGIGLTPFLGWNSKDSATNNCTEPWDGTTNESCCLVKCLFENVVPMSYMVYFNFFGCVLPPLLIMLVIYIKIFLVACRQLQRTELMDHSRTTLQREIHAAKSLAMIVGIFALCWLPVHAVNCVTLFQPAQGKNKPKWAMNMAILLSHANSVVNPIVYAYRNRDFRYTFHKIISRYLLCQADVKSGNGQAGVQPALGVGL
# Experiment Description: Antagonist activity at human adenosine A2B receptor expressed in CHO cells assessed as inhibition of NECA-stimulated cAMP level at 1 uM by scintillation counting analysis
# Type: functional, cell-based
Cut-off 3% on inhibition, inclusive. At or above means fulfilled; below means not fulfilled.

Take a look at these entries with their results.
> print(dat)
                            chemical.string    label.value
1  COc1ccc(CCc2nc(N)c3nn(-c4ccccc4)cc3n2)cc1      fulfilled
2  Nc1nc(Cc2cccc(C(F)(F)F)c2)nc2cn(-c3ccccc3)nc12  not fulfilled
3   Cc1cccc(Cc2nc(N)c3nn(-c4ccccc4)cc3n2)c1      fulfilled

Q: Could you verify whether the entry Nc1nc(CCCc2ccccc2)nc2cn(-c3ccccc3)nc12 shows inhibition of no less than 3%?
Result: fulfilled

Q: Given Nc1nc(CCCc2ccc(OCc3ccccc3)cc2)nc2cn(-c3ccccc3)nc12 , state whether its inhibition is at least 3%.
Result: fulfilled

Q: Hi team, for Nc1nc(CCc2ccccc2)nc2cn(-c3ccccc3)nc12 , is the recorded inhibition at or above 3%?
Result: not fulfilled

Q: Is reported inhibition greater than or equal to 3% here: Nc1nc(Cc2cccc(Cl)c2)nc2cn(-c3ccccc3)nc12
Result: not fulfilled

----------
# Measured On: Adenosine receptor A3 (Homo sapiens) (UniProt P0DMS8)
# Sequence (P0DMS8 whole entry): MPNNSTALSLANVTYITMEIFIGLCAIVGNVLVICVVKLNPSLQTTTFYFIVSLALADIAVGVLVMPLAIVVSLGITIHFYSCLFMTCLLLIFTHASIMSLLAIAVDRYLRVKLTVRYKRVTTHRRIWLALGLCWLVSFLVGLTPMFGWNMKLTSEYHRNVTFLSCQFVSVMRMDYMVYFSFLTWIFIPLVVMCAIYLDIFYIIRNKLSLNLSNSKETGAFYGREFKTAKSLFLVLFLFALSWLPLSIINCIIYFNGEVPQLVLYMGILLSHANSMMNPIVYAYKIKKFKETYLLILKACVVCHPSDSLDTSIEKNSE
# Experiment Description: Displacement of [3H]AB-MECA from human adenosine A3 receptor expressed in CHO cells at 1 uM by scintillation counting analysis relative to control
# Type: cell-based
Attribute Measured: inhibition (%)
Write the value in % as a bare number.

# annotated cases, reported inhibition shown
> print(dat)
                            chemical.string  attribute.measured  unit  reading
1  Nc1nc(Cc2ccc3c(c2)OCO3)nc2cn(-c3ccccc3)nc12          inhibition     %       14
2  Nc1nc(CCCc2ccc(OCc3ccccc3)cc2)nc2cn(-c3ccccc3)nc12          inhibition     %        2
3  Nc1nc(Cc2cccc(C(F)(F)F)c2)nc2cn(-c3ccccc3)nc12          inhibition     %       41
4    Nc1nc(CCCc2ccccc2)nc2cn(-c3ccccc3)nc12          inhibition     %       12

Q: Quick check: inhibition on Adenosine receptor A3 (Homo sapiens) (UniProt P0DMS8), item Cc1cccc(Cc2nc(N)c3nn(-c4ccccc4)cc3n2)c1 ?
Result: 11

Q: Field: inhibition (Adenosine receptor A3 (Homo sapiens) (UniProt P0DMS8)). Entry: CC(C)c1nc(N)c2nn(-c3ccccc3)cc2n1
Result: 11

----------
# Measured On: UniProtKB P29274
# Experiment Description: Antagonist activity at human adenosine A2A receptor expressed in CHO cells assessed as inhibition of NECA-stimulated cAMP level by scintillation counting analysis
Attribute Measured: IC50 (nM)
Kindly provide the numeric value in nM only, without the unit symbol.

Q: What does the data say about its IC50? Entry: Nc1nc(CCCc2ccccc2)nc2cn(-c3ccccc3)nc12
Result: 423

----------
# Measured On: Adenosine receptor A2a (Homo sapiens, UniProt P29274)
# Sequence (P29274 whole entry): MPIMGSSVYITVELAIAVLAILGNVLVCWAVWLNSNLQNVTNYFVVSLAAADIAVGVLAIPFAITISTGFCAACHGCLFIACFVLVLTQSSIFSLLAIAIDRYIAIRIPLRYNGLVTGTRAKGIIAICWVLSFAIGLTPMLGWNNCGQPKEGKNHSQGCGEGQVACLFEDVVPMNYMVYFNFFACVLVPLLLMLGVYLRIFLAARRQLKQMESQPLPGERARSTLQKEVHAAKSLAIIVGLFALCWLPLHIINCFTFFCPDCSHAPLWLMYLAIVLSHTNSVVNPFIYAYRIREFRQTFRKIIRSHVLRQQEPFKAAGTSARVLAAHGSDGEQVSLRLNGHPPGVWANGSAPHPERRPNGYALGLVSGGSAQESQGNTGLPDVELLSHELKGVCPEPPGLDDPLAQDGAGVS
# Experiment Description: Displacement of [3H]ZM241385 from human adenosine A2A receptor expressed in CHO cells by scintillation counting analysis
# Type: cell-based
Attribute Measured: Ki
I'd appreciate it if you included the unit after the number.

> print(dat)
                            chemical.string  reading
1     Nc1nc(Cc2ccccc2O)nc2cn(-c3ccccc3)nc12    89 nM
2    Nc1nc(CCCc2ccccc2)nc2cn(-c3ccccc3)nc12    55 nM
3  Nc1nc(CCCc2cccc(O)c2)nc2cn(-c3ccccc3)nc12   146 nM
4                 Nc1ncnc2cn(-c3ccccc3)nc12   410 nM

We next turn to a different molecule, shown below.
Q: Need Ki, item COc1ccc(CCCc2nc(N)c3nn(-c4ccccc4)cc3n2)cc1
Result: 790 nM

----------
# Measured On: Adenosine receptor A1 (Homo sapiens) (UniProt P30542)
# Sequence (P30542 whole entry): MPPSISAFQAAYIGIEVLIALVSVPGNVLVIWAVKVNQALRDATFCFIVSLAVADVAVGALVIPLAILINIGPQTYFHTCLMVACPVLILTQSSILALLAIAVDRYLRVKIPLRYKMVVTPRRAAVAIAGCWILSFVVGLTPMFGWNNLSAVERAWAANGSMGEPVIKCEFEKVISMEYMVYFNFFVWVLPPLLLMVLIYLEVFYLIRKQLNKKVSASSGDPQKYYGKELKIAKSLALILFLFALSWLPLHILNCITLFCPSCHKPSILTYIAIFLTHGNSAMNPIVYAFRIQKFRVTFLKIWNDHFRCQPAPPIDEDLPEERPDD
# Experiment Description: Displacement of [3H]-DPCPX from human adenosine A1 receptor expressed in CHO cells at 1 uM by scintillation counting analysis relative to control
# Format: cell-based
Attribute Measured: inhibition (%)
Please give a number only; it is taken to be in %.

Q: # get_value(readout='inhibition', item= C=CCOc1ccc(CCCc2nc(N)c3nn(-c4ccccc4)cc3n2)cc1 )
Result: 40

Q: For the molecule shown here, CC(C)c1nc(N)c2nn(-c3ccccc3)cc2n1 , give the reported inhibition.
Result: 2

Q: So what's the measured inhibition for this one? Nc1nc(Cc2ccc(Cl)cc2)nc2cn(-c3ccccc3)nc12
Result: 49

Q: Sample Nc1nc(CCCc2ccc(OCc3ccccc3)cc2)nc2cn(-c3ccccc3)nc12 — what was its inhibition?
Result: 14

Q: Field request: inhibition | item: CC(C)Cc1nc(N)c2nn(-c3ccccc3)cc2n1
Result: 49

Q: Find the recorded inhibition belonging to COc1ccc(Cc2nc(N)c3nn(-c4ccccc4)cc3n2)cc1 and report it.
Result: 48

Q: Request the reported inhibition associated with Nc1nc(Cc2cccc(C(F)(F)F)c2)nc2cn(-c3ccccc3)nc12
Result: 1

Q: Which inhibition is reported for this molecule? Nc1nc(CCc2ccccc2)nc2cn(-c3ccccc3)nc12
Result: 15

----------
# Measured On: Adenosine receptor A2a (Homo sapiens)
# Experiment Description: Displacement of [3H]ZM241385 from human adenosine A2A receptor expressed in CHO cells at 1 uM by scintillation counting analysis relative to control
# Type: cell-based
The following compounds are shown together with reported inhibition values.

Before answering, review these 2 worked examples.
> print(dat)
                            chemical.string  attribute.measured  reading
1  Nc1nc(/C=C/c2ccccc2)nc2cn(-c3ccccc3)nc12          inhibition      21%
2   Cc1ccc(Cc2nc(N)c3nn(-c4ccccc4)cc3n2)cc1          inhibition      26%

Q: Recorded inhibition of COc1ccc(Cc2nc(N)c3nn(-c4ccccc4)cc3n2)cc1 , please.
Result: 20%

Q: Name the recorded inhibition for Nc1nc(CCc2ccc(O)cc2)nc2cn(-c3ccccc3)nc12 .
Result: 30%

Q: Quick one: inhibition for Nc1nc(Cc2ccc(O)cc2)nc2cn(-c3ccccc3)nc12 ?
Result: 44%

Q: Reported inhibition for Nc1nc(Cc2ccccc2Cl)nc2cn(-c3ccccc3)nc12 : what is it?
Result: 44%

Q: So what does the record say about inhibition for CCc1nc(N)c2nn(-c3ccccc3)cc2n1 ?
Result: 38%

----------
# Measured On: Adenosine receptor A3 (Homo sapiens)
# Experiment Description: Displacement of [3H]AB-MECA from human adenosine A3 receptor expressed in CHO cells at 1 uM by scintillation counting analysis relative to control
# Type: cell-based
Attribute Measured: inhibition (%)
Answer format: numeric, % implied, no suffix.

Below are worked cases with known answers.
> print(dat)
                            chemical.string                           measured.on  unit  reading
1  COc1cccc(Cc2nc(N)c3nn(-c4ccccc4)cc3n2)c1  Adenosine receptor A3 (Homo sapiens)     %       37
2  COc1ccc(Cc2nc(N)c3nn(-c4ccccc4)cc3n2)cc1  Adenosine receptor A3 (Homo sapiens)     %       38
3  Nc1nc(Cc2ccc(Cl)cc2)nc2cn(-c3ccccc3)nc12  Adenosine receptor A3 (Homo sapiens)     %       11

Q: Provide value of inhibition for this record tested with Adenosine receptor A3 (Homo sapiens): COc1ccc(CCc2nc(N)c3nn(-c4ccccc4)cc3n2)cc1
Result: 22

Q: Any idea what inhibition came out for CC(C)Cc1nc(N)c2nn(-c3ccccc3)cc2n1 on Adenosine receptor A3 (Homo sapiens)?
Result: 13

----------
# Measured On: Adenosine receptor A2b (Homo sapiens) (UniProt P29275)
# Experiment Description: Antagonist activity at human adenosine A2B receptor expressed in CHO cells assessed as inhibition of NECA-stimulated cAMP level at 1 uM by scintillation counting analysis
# Type: functional, cell-based
Label scheme for inhibition: lower than 3% is no, 3% and above is yes.

> print(dat)
                            chemical.string  label.value
1             CCc1nc(N)c2nn(-c3ccccc3)cc2n1          yes
2  Nc1nc(Cc2ccc(Cl)cc2)nc2cn(-c3ccccc3)nc12           no
3  Nc1nc(CCc2ccc(O)cc2)nc2cn(-c3ccccc3)nc12          yes
4  COc1cccc(Cc2nc(N)c3nn(-c4ccccc4)cc3n2)c1           no
5  Nc1nc(CCCc2ccc(O)cc2)nc2cn(-c3ccccc3)nc12          yes

Q: Could you please find out whether COc1ccc(Cc2nc(N)c3nn(-c4ccccc4)cc3n2)cc1 has inhibition that meets 3% or exceeds it?
Result: yes

Q: Record Nc1nc(Cc2ccc3c(c2)OCO3)nc2cn(-c3ccccc3)nc12 ; criterion: inhibition no lower than 3%. Met?
Result: no

Q: Hello, I need to know if Nc1nc(Cc2ccccc2O)nc2cn(-c3ccccc3)nc12 has measured inhibition not below 3%. Thanks!
Result: no

Q: Hi, just wondering whether Nc1nc(Cc2cccc(O)c2)nc2cn(-c3ccccc3)nc12 shows inhibition of 3% or higher.
Result: no

Q: Test whether the compound CC(C)c1nc(N)c2nn(-c3ccccc3)cc2n1 records inhibition of 3% or higher.
Result: yes
